System: Enterococcus sp.
experiment.notes: in vitro antibacterial evaluation, MIC by broth dilution
Assay type: cell-based
condition.label: broth dilution, inoculum 5×10^5 CFU/mL, 18 hours at 35° C.; strain GC 4556
quantity.kind: MIC Enterococcus faecium (GC 4556) (µg/mL)

>  <molecule>
CC(c1ccccc1)C1NC(=O)CNC(=O)C(CO)NC(=O)C(C(O)C2CNC(=N)N2C2OC(CO)C(O)C(O)C2O)NC(=O)C(C(O)C2CNC(=N)N2)NC(=O)C(Cc2ccc(OC3OC(CO)C(OC4OC5COC6(CC(C)(C)CC(C)(C)C6)OC5C(O)C4O)C(O)C3O)cc2)NC1=O (centres unmarked) [Example 207]

>  <experimental.value>
4

$$$$
>  <molecule>
CC(c1ccccc1)C1NC(=O)CNC(=O)C(CO)NC(=O)C(C(O)C2CNC(=N)N2C2OC(CO)C(O)C(O)C2O)NC(=O)C(C(O)C2CNC(=N)N2)NC(=O)C(Cc2ccc(OC3OC(CO)C(OC4OC5COC6(CCC(C(C)(C)C)CC6)OC5C(O)C4O)C(O)C3O)cc2)NC1=O (centres unmarked) [Example 208]

>  <experimental.value>
8

$$$$

====

Recorded MIC Staphylococcus aureus (GC 4544), one value per entry.
System: Staphylococcus sp.
experiment.notes: in vitro antibacterial evaluation, MIC by broth dilution
Format: cell-based
condition.label: broth dilution, 18 hours at 35° C.; strain GC 4544
quantity.kind: MIC Staphylococcus aureus (GC 4544)

>  <molecule>
CC(c1ccccc1)[C@@H]1NC(=O)CNC(=O)[C@H](CO)NC(=O)[C@H](C(O)C2CNC(=N)N2)NC(=O)[C@H](C(O)C2CNC(=N)N2)NC(=O)[C@H](Cc2ccc(O)cc2)NC1=O (some centres unmarked) [Example 280b]

>  <assayed.system>
Staphylococcus sp.

>  <experimental.value>
128 µg/mL

$$$$
>  <molecule>
COc1ccc2cc(COC3C(CO)OC(OC4C(CO)OC(Oc5ccc(CC6NC(=O)C(C(C)c7ccccc7)NC(=O)CNC(=O)C(CO)NC(=O)C(C(O)C7CNC(=N)N7C7OC(CO)C(O)C(O)C7O)NC(=O)C(C(O)C7CNC(=N)N7)NC6=O)cc5)C(O)C4O)C(O)C3O)ccc2c1 (centres unmarked) [Example 230a]

>  <assayed.system>
Staphylococcus sp.

>  <experimental.value>
1 to 2 µg/mL

$$$$
>  <molecule>
Cc1ccc(COCC2OC(OC3C(CO)OC(Oc4ccc(CC5NC(=O)C(C(C)c6ccccc6)NC(=O)CNC(=O)C(CO)NC(=O)C(C(O)C6CNC(=N)N6C6OC(CO)C(O)C(O)C6O)NC(=O)C(C(O)C6CNC(=N)N6)NC5=O)cc4)C(O)C3O)C(O)C(O)C2O)cc1 (centres unmarked)

>  <assayed.system>
Staphylococcus sp.

>  <experimental.value>
2 µg/mL

$$$$
>  <molecule>
CC(C)=CCOc1cccc(C2OCC3OC(OC4C(CO)OC(Oc5ccc(CC6NC(=O)C(C(C)c7ccccc7)NC(=O)CNC(=O)C(CO)NC(=O)C(C(O)C7CNC(=N)N7C7OC(CO)C(O)C(O)C7O)NC(=O)C(C(O)C7CNC(=N)N7)NC6=O)cc5)C(O)C4O)C(O)C(O)C3O2)c1 (centres unmarked)

>  <assayed.system>
Staphylococcus sp.

>  <experimental.value>
16 µg/mL

$$$$
>  <molecule>
CC(C)CCC(=O)OC1C(OC2C(CO)OC(Oc3ccc(CC4NC(=O)C(C(C)c5ccccc5)NC(=O)CNC(=O)C(CO)NC(=O)C(C(O)C5CNC(=N)N5C5OC(CO)C(O)C(O)C5O)NC(=O)C(C(O)C5CNC(=N)N5)NC4=O)cc3)C(O)C2O)OC(CO)C(O)C1O (centres unmarked) [Example 270a]

>  <assayed.system>
Staphylococcus sp.

>  <experimental.value>
4 µg/mL

$$$$
>  <molecule>
CC(c1ccccc1)C1NC(=O)CNC(=O)C(CO)NC(=O)C(C(O)C2CNC(=N)N2C2OC(CO)C(O)C(O)C2O)NC(=O)C(C(O)C2CNC(=N)N2)NC(=O)C(Cc2ccc(OC3OC(CO)C(OC4OC5COC(CC(C)(C)C)OC5C(O)C4O)C(O)C3O)cc2)NC1=O (centres unmarked)

>  <assayed.system>
Staphylococcus sp.

>  <experimental.value>
2 µg/mL

$$$$
>  <molecule>
CCCCCCCC1OCC2OC(OC3C(CO)OC(Oc4ccc(CC5NC(=O)C(C(C)c6ccccc6)NC(=O)CNC(=O)C(CO)NC(=O)C(C(O)C6CNC(=N)N6C6OC(CO)C(O)C(O)C6O)NC(=O)C(C(O)C6CNC(=N)N6)NC5=O)cc4)C(O)C3O)C(O)C(O)C2O1 (centres unmarked)

>  <assayed.system>
Staphylococcus sp.

>  <experimental.value>
1 µg/mL

$$$$
>  <molecule>
CC(c1ccccc1)C1NC(=O)CNC(=O)C(CO)NC(=O)C(C(O)C2CNC(=N)N2C2OC(CO)C(O)C(O)C2O)NC(=O)C(C(O)C2CNC(=N)N2)NC(=O)C(Cc2ccc(OC3OC(CO)C(OC4OC5COC(c6ccc7c(c6)OCO7)OC5C(O)C4O)C(O)C3O)cc2)NC1=O (centres unmarked)

>  <assayed.system>
Staphylococcus sp.

>  <experimental.value>
2 to 8 µg/mL

$$$$

====

Test system: Staphylococcus sp.
experiment.notes: in vitro antibacterial evaluation, MIC by broth dilution
Type: cell-based
condition.label: broth dilution, 18 hours at 35° C.; strain ATCC 29213
Numbered stars: 1 amine (or outer) side, 2 acyl side, 3 side chain; on linkers, the order of the positions; unused ones are H or OH. Square brackets hold non-standard residues; d marks the D form. Peptide text beside a SMILES is read from it. ξ: configuration not given here. X1 = N=C1NCC(C(O)C(N[*:1])C(=O)[*:2])N1C1OC(CO)C(O)C(O)C1O; X6 = N=C1NCC(CC(N[*:1])C(=O)[*:2])N1C1OC(CO)C(O)C(O)C1O; ξEnduracididine(βξ-OH,4'ξ) = N=C1NCC(C(O)C(N)C(=O)O)N1; Tyr(3-NO2) = N[CH](Cc1ccc(O)c([N+](=O)[O-])c1)C(=O)O; X7 = N=C1NCC(CC(N[*:1])C(=O)[*:2])N1; ξPhe(βξ-Me) = CC(c1ccccc1)C(N)C(=O)O
quantity.kind: MIC Staphylococcus aureus (ATCC 29213)

>  <molecule>
CC(c1ccccc1)C1NC(=O)CNC(=O)C(CO)NC(=O)C(CC2CNC(=N)N2C2OC(CO)C(O)C(O)C2O)NC(=O)C(CC2CNC(=N)N2)NC(=O)C(Cc2ccc(O)c([N+](=O)[O-])c2)NC1=O (stereo not drawn) [Example 10] (cyclo(G[ξPhe(βξ-Me)][Tyr(3-NO2)][X7][X6]S); configuration not given here)

>  <quantity.kind>
MIC Staphylococcus aureus (ATCC 29213)

>  <experimental.value>
>64 mg/L

$$$$
>  <molecule>
COc1ccc(COCC2OC(OC3C(CO)OC(Oc4ccc(CC5NC(=O)C(C(C)c6ccccc6)NC(=O)CNC(=O)C(CO)NC(=O)C(C(O)C6CNC(=N)N6C6OC(CO)C(O)C(O)C6O)NC(=O)C(C(O)C6CNC(=N)N6)NC5=O)cc4)C(O)C3O)C(O)C(O)C2O)c2ccccc12 (stereo not shown) [Example 240]

>  <quantity.kind>
MIC Staphylococcus aureus (ATCC 29213)

>  <experimental.value>
4 mg/L

$$$$
>  <molecule>
CC(c1ccccc1)C1NC(=O)CNC(=O)C(CO)NC(=O)C(CC2CNC(=N)N2C2OC(CO)C(O)C(O)C2O)NC(=O)C(CC2CNC(=N)N2)NC(=O)C(Cc2ccc(OC3OC(CO)C(OC4OC(COCc5ccc(OCc6ccccc6)cc5)C(O)C(O)C4O)C(O)C3O)cc2)NC1=O (stereo not shown) [Example 246]

>  <quantity.kind>
MIC Staphylococcus aureus (ATCC 29213)

>  <experimental.value>
4 mg/L

$$$$
>  <molecule>
COc1cccc(C2OC3C(OC4C(CO)OC(Oc5ccc(CC6NC(=O)C(C(C)c7ccccc7)NC(=O)CNC(=O)C(CO)NC(=O)C(C(O)C7CNC(=N)N7C7OC(CO)C(O)C(O)C7O)NC(=O)C(C(O)C7CNC(=N)N7)NC6=O)cc5)C(O)C4O)OC(CO)C(O)C3O2)c1 (single isomer, unassigned) [Example 137a]

>  <quantity.kind>
MIC Staphylococcus aureus (ATCC 29213)

>  <experimental.value>
32 mg/L

$$$$
>  <molecule>
CC(c1ccccc1)C1NC(=O)CNC(=O)C(CO)NC(=O)C(C(O)C2CNC(=N)N2C2OC(CO)C(O)C(O)C2O)NC(=O)C(C(O)C2CNC(=N)N2)NC(=O)C(Cc2ccc(OC3OC(CO)C(OC4OC5COC(c6ccc(C=Cc7ccccc7)cc6)OC5C(O)C4O)C(O)C3O)cc2)NC1=O (stereo not shown) [Example 172]

>  <quantity.kind>
MIC Staphylococcus aureus (ATCC 29213)

>  <experimental.value>
4 mg/L

$$$$
>  <molecule>
CC(c1ccccc1)C1NC(=O)CNC(=O)C(CO)NC(=O)C(C(O)C2CNC(=N)N2C2OC(CO)C(O)C(O)C2O)NC(=O)C(C(O)C2CNC(=N)N2)NC(=O)C(Cc2ccc(O)c([N+](=O)[O-])c2)NC1=O (stereo not drawn) [Example 8] (cyclo(G[ξPhe(βξ-Me)][Tyr(3-NO2)][ξEnduracididine(βξ-OH,4'ξ)][X1]S); configuration not given here)

>  <quantity.kind>
MIC Staphylococcus aureus (ATCC 29213)

>  <experimental.value>
>128 mg/L

$$$$
>  <molecule>
COc1ccc(Oc2cccc(C3OCC4OC(OC5C(CO)OC(Oc6ccc(CC7NC(=O)C(C(C)c8ccccc8)NC(=O)CNC(=O)C(CO)NC(=O)C(C(O)C8CNC(=N)N8C8OC(CO)C(O)C(O)C8O)NC(=O)C(C(O)C8CNC(=N)N8)NC7=O)cc6)C(O)C5O)C(O)C(O)C4O3)c2)cc1 (stereo not shown) [Example 180]

>  <quantity.kind>
MIC Staphylococcus aureus (ATCC 29213)

>  <experimental.value>
2 mg/L

$$$$
>  <molecule>
COc1ccc2cc(COC3C(OC4C(CO)OC(Oc5ccc(CC6NC(=O)C(C(C)c7ccccc7)NC(=O)CNC(=O)C(CO)NC(=O)C(CC7CNC(=N)N7C7OC(CO)C(O)C(O)C7O)NC(=O)C(CC7CNC(=N)N7)NC6=O)cc5)C(O)C4O)OC(CO)C(O)C3O)ccc2c1 (stereo not shown) [Example 245c]

>  <quantity.kind>
MIC Staphylococcus aureus (ATCC 29213)

>  <experimental.value>
128 mg/L

$$$$
>  <molecule>
CCCCCNC(=O)OCC1OC(OC2C(CO)OC(Oc3ccc(CC4NC(=O)C(C(C)c5ccccc5)NC(=O)CNC(=O)C(CO)NC(=O)C(C(O)C5CNC(=N)N5C5OC(CO)C(O)C(O)C5O)NC(=O)C(C(O)C5CNC(=N)N5)NC4=O)cc3)C(O)C2O)C(O)C(O)C1O (stereo not shown) [Example 251b]

>  <quantity.kind>
MIC Staphylococcus aureus (ATCC 29213)

>  <experimental.value>
16 mg/L

$$$$
>  <molecule>
CC(c1ccc(F)cc1)C1NC(=O)CNC(=O)C(CO)NC(=O)C(C(O)C2CNC(=N)N2C2OC(CO)C(O)C(O)C2O)NC(=O)C(C(O)C2CNC(=N)N2)NC(=O)C(Cc2ccc(OC3OC(CO)C(OC4OC(CO)C(O)C(O)C4O)C(O)C3O)cc2)NC1=O (stereo not shown) [Example 261a]

>  <quantity.kind>
MIC Staphylococcus aureus (ATCC 29213)

>  <experimental.value>
>64 mg/L

$$$$
>  <molecule>
CC(c1ccccc1)C1NC(=O)CNC(=O)C(CO)NC(=O)C(C(O)C2CNC(=N)N2C2OC(CO)C(O)C(O)C2O)NC(=O)C(C(O)C2CNC(=N)N2)NC(=O)C(Cc2ccc(OC3OC(CO)C(OC4OC5COC(c6cccs6)OC5C(O)C4O)C(O)C3O)cc2)NC1=O (stereo not shown) [Example 132]

>  <quantity.kind>
MIC Staphylococcus aureus (ATCC 29213)

>  <experimental.value>
4 mg/L

$$$$
>  <molecule>
CC(c1ccccc1)C1NC(=O)CNC(=O)C(CO)NC(=O)C(CC2CNC(=N)N2C2OC(CO)C(O)C(O)C2O)NC(=O)C(CC2CNC(=N)N2)NC(=O)C(Cc2ccc(OC3OC(CO)C(OC4OC(CO)C(O)C(O)C4O)C(O)C3O)cc2)NC1=O (stereo not shown) [Example 277a]

>  <quantity.kind>
MIC Staphylococcus aureus (ATCC 29213)

>  <experimental.value>
>128 mg/L

$$$$
>  <molecule>
CC(c1ccccc1)C1NC(=O)CNC(=O)C(CO)NC(=O)C(C(O)C2CNC(=N)N2C2OC(CO)C(O)C(O)C2O)NC(=O)C(C(O)C2CNC(=N)N2)NC(=O)C(Cc2ccc(OC3OC(CO)C(OC4OC5COC(c6ccc(C(=O)O)cc6)OC5C(O)C4O)C(O)C3O)cc2)NC1=O (stereo not shown) [Example 141]

>  <quantity.kind>
MIC Staphylococcus aureus (ATCC 29213)

>  <experimental.value>
>64 mg/L

$$$$
>  <molecule>
CC(c1ccccc1)C1NC(=O)CNC(=O)C(CO)NC(=O)C(C(O)C2CNC(=N)N2C2OC(CO)C(O)C(O)C2O)NC(=O)C(C(O)C2CNC(=N)N2)NC(=O)C(Cc2ccc(OC3OC(CO)C(OC4OC5COC(Cc6ccc(F)cc6)OC5C(O)C4O)C(O)C3O)cc2)NC1=O (stereo not shown) [Example 121]

>  <quantity.kind>
MIC Staphylococcus aureus (ATCC 29213)

>  <experimental.value>
1 mg/L

$$$$
>  <molecule>
CCCC(C)C1OCC2OC(OC3C(CO)OC(Oc4ccc(CC5NC(=O)C(C(C)c6ccccc6)NC(=O)CNC(=O)C(CO)NC(=O)C(C(O)C6CNC(=N)N6C6OC(CO)C(O)C(O)C6O)NC(=O)C(C(O)C6CNC(=N)N6)NC5=O)cc4)C(O)C3O)C(O)C(O)C2O1 (stereo not shown) [Example 111]

>  <quantity.kind>
MIC Staphylococcus aureus (ATCC 29213)

>  <experimental.value>
1 mg/L

$$$$
>  <molecule>
CC(C)CC(=O)OC1C(OC2C(CO)OC(Oc3ccc(CC4NC(=O)C(C(C)c5ccc(F)cc5)NC(=O)CNC(=O)C(CO)NC(=O)C(C(O)C5CNC(=N)N5C5OC(CO)C(O)C(O)C5O)NC(=O)C(C(O)C5CNC(=N)N5)NC4=O)cc3)C(O)C2O)OC(CO)C(O)C1O (stereo not shown) [Example 261b]

>  <quantity.kind>
MIC Staphylococcus aureus (ATCC 29213)

>  <experimental.value>
8 mg/L

$$$$
